Several publications report Ki on Carbonic anhydrase 1 (Homo sapiens); those values are gathered here.
Labelling field: enter y if recorded Ki is less than 4000 nM. Enter n if it equals or exceeds that cut-off.

structure-smiles: Nc1c(Cl)cc(S(N)(=O)=O)cc1I
category-label: n
//
structure-smiles: CN(CC(=O)Nc1ccc2nc(S(N)(=O)=O)sc2c1)C(=N)N
category-label: y
//
structure-smiles: Cc1ccccc1-c1ccc(S(N)(=O)=O)cc1
category-label: y
//
structure-smiles: CC1(C)OB(c2ccc(NS(N)(=O)=O)cc2)OC1(C)C
category-label: y
//
structure-smiles: CC(=O)Nc1ccc(S(=O)(=O)Nc2nnc(S(N)(=O)=O)s2)cc1Br
category-label: y
//
structure-smiles: CCc1cc(-c2ccccc2)cc(CC)[n+]1CC(=O)NNc1ccc(S(N)(=O)=O)cc1
category-label: n

----------
pKi: −log10 of the molar value.
Several publications report pKi on Carbonic anhydrase 1 (Homo sapiens, UniProt P00915); those values are gathered here.
readout-name: pKi

molecule: NCC(=O)Nc1ccc(S(N)(=O)=O)cc1Br
readout-name: pKi
bound-operator: =
reported-value: 6.22

molecule: CC(C)CC(NS(=O)(=O)c1c(F)c(F)c(F)c(F)c1F)C(=O)NO (stereo not given)
readout-name: pKi
bound-operator: =
reported-value: 8.00

molecule: NS(=O)(=O)c1cc(S(N)(=O)=O)c(NC(=O)CN(CCN(CC(=O)O)c2ccccc2O)c2ccccc2O)cc1Cl
readout-name: pKi
bound-operator: =
reported-value: 6.62

molecule: NCCCC(=O)OCCOc1ccc2nc(S(N)(=O)=O)sc2c1
readout-name: pKi
bound-operator: =
reported-value: 8.00

molecule: NS(=O)(=O)c1ccc(CCNc2nc(NC(CO)C(=O)O)nc(NC(CO)C(=O)O)n2)cc1 (racemic)
readout-name: pKi
bound-operator: =
reported-value: 5.43

molecule: CC1(C)C=Cc2cc3ccc(=O)oc3cc2O1
readout-name: pKi
bound-operator: =
reported-value: 4.67

molecule: O=C(CC(=O)Nc1ccc2c(c1)B(O)OC2)Nc1ccc2c(c1)B(O)OC2
readout-name: pKi
bound-operator: =
reported-value: 6.05

molecule: Cn1nc(S(N)(=O)=O)s/c1=N/C(=O)CN(CCN(CC(=O)O)CC(=O)O)CC(=O)O
readout-name: pKi
bound-operator: =
reported-value: 6.67

molecule: O=c1ccc2ccccc2s1
readout-name: pKi
bound-operator: <
reported-value: 4.00

molecule: COc1ccc(S(=O)(=O)N(OC(C)C)C(C(=O)NO)C(C)C)cc1 (stereo not given)
readout-name: pKi
bound-operator: =
reported-value: 5.05

----------
pKi: −log10 of the molar value.
Several publications report pKi on Carbonic anhydrase 1 (Homo sapiens, UniProt P00915); those values are gathered here.
readout-name: pKi

compound: NS(=O)(=O)c1nnc(NC(=O)CCNS(=O)(=O)c2ccc(I)cc2)s1
assay-system: Carbonic anhydrase 1 (Homo sapiens, UniProt P00915)
readout-name: pKi
bound-operator: =
reported-value: 6.59

compound: COC(=O)CCNS(=O)(=O)NCc1ccc(F)cc1
assay-system: Carbonic anhydrase 1 (Homo sapiens, UniProt P00915)
readout-name: pKi
bound-operator: <
reported-value: 5.00

compound: CC(C)(C)OC(=O)c1ccc(-c2ccc(S(N)(=O)=O)cc2)cc1
assay-system: Carbonic anhydrase 1 (Homo sapiens, UniProt P00915)
readout-name: pKi
bound-operator: =
reported-value: 7.10

compound: N#Cc1ccc(CN2C(=O)c3ccccc3S2(=O)=O)cc1
assay-system: Carbonic anhydrase 1 (Homo sapiens, UniProt P00915)
readout-name: pKi
bound-operator: <
reported-value: 4.30

compound: NS(=O)(=O)c1nnc(NC(=O)CN(CCN(CC(=O)O)CC(=O)O)CC(=O)O)s1
assay-system: Carbonic anhydrase 1 (Homo sapiens, UniProt P00915)
readout-name: pKi
bound-operator: =
reported-value: 6.65

compound: N#CCCNCCc1ccc(S(N)(=O)=O)cc1
assay-system: Carbonic anhydrase 1 (Homo sapiens, UniProt P00915)
readout-name: pKi
bound-operator: =
reported-value: 6.98

compound: C/C(CN1C(=O)c2ccccc2S1(=O)=O)=N\O (mixture of isomers)
assay-system: Carbonic anhydrase 1 (Homo sapiens, UniProt P00915)
readout-name: pKi
bound-operator: <
reported-value: 4.30

compound: C[C@H](CCC(=O)NCc1ccc(S(N)(=O)=O)cc1)[C@H]1CC[C@H]2[C@@H]3[C@H](O)C[C@@H]4C[C@H](O)CC[C@]4(C)[C@H]3C[C@H](O)[C@]12C
assay-system: Carbonic anhydrase 1 (Homo sapiens, UniProt P00915)
readout-name: pKi
bound-operator: =
reported-value: 5.42

compound: CCOc1ccc(S(=O)(=O)NC[C@H](C)O)cc1-c1nnc2c(n1)c(C)nn2-c1ccc(C)cc1
assay-system: Carbonic anhydrase 1 (Homo sapiens, UniProt P00915)
readout-name: pKi
bound-operator: =
reported-value: 6.09

compound: Cc1cc(C)[n+](CC(=O)OCCOc2ccc3nc(S(N)(=O)=O)sc3c2)c(C)c1
assay-system: Carbonic anhydrase 1 (Homo sapiens, UniProt P00915)
readout-name: pKi
bound-operator: =
reported-value: 7.92

compound: CCCC(CCC)C(=O)Nc1ccc(S(N)(=O)=O)cc1I
assay-system: Carbonic anhydrase 1 (Homo sapiens, UniProt P00915)
readout-name: pKi
bound-operator: =
reported-value: 6.26

compound: NS(=O)(=O)c1ccc(CCN(Cc2ccco2)C(=O)CN(CCC(=O)O)CCc2ccccc2)cc1
assay-system: Carbonic anhydrase 1 (Homo sapiens, UniProt P00915)
readout-name: pKi
bound-operator: =
reported-value: 7.10

compound: O=C(CSc1nccc(Nc2ccc(S(=O)(=O)Nc3ccccn3)cc2)n1)c1ccccc1
assay-system: Carbonic anhydrase 1 (Homo sapiens, UniProt P00915)
readout-name: pKi
bound-operator: <
reported-value: 4.00

compound: Cn1nc(S(N)(=O)=O)s/c1=N/S(=O)(=O)c1ccc(N)cc1
assay-system: Carbonic anhydrase 1 (Homo sapiens, UniProt P00915)
readout-name: pKi
bound-operator: =
reported-value: 9.00

compound: CSCCC(/N=C(\S)Nc1ccc(S(N)(=O)=O)cc1)C(=O)O (stereo not drawn)
assay-system: Carbonic anhydrase 1 (Homo sapiens, UniProt P00915)
readout-name: pKi
bound-operator: =
reported-value: 7.57

compound: C[C@H](CCC(=O)OCc1ccc(S(N)(=O)=O)cc1)[C@H]1CC[C@H]2[C@@H]3[C@H](O)C[C@@H]4C[C@H](O)CC[C@]4(C)[C@H]3C[C@H](O)[C@]12C
assay-system: Carbonic anhydrase 1 (Homo sapiens, UniProt P00915)
readout-name: pKi
bound-operator: =
reported-value: 5.92

compound: NS(=O)(=O)c1ccc(/N=C(S)/N=C2/C=CC(=C3c4ccc(O)cc4Oc4cc(O)ccc43)C(C(=O)O)=C2)c(Cl)c1
assay-system: Carbonic anhydrase 1 (Homo sapiens, UniProt P00915)
readout-name: pKi
bound-operator: =
reported-value: 6.02

compound: NS(=O)(=O)c1ccc(-c2ccc(C(=O)c3ccccc3)cc2)cc1
assay-system: Carbonic anhydrase 1 (Homo sapiens, UniProt P00915)
readout-name: pKi
bound-operator: =
reported-value: 5.79

----------
Several publications report Ki on Carbonic anhydrase 1 (Homo sapiens); those values are gathered here.

compound: O=S(=O)(NO)NC1C=C[C@H](O)[C@@H](CO)O1 (stereo not given in full)
bound-operator: >
Ki (nM): 10000

compound: NCC(=O)NCC(=O)Nc1ccc(S(=O)(=O)Nc2nnc(S(N)(=O)=O)s2)cc1
bound-operator: =
Ki (nM): 13

compound: CC(=O)Oc1cc2ccc(=O)oc2cc1OC(C)=O
bound-operator: >
Ki (nM): 10000

compound: Cc1cn([C@H]2C[C@@H](n3cc(COC(=O)c4ccc(S(N)(=O)=O)cc4)nn3)[C@@H](CO)O2)c(=O)[nH]c1=O
bound-operator: =
Ki (nM): 28

compound: C/C(=N\NC(=O)Nc1n[nH]c(=S)s1)c1ccc(Cl)cc1
bound-operator: =
Ki (nM): 144000

compound: C[C@H](CCC(=O)NCCC(=O)Nc1nnc(S(N)(=O)=O)s1)[C@H]1CC[C@H]2[C@@H]3C(=O)C[C@@H]4CC(=O)CC[C@]4(C)[C@H]3CC(=O)[C@]12C
bound-operator: =
Ki (nM): 22

compound: Cc1ccc(-c2cc(=O)oc3c(C)c(O)ccc23)cc1
bound-operator: >
Ki (nM): 10000

compound: O=c1ccc2cc(O)c(O)cc2o1
bound-operator: >
Ki (nM): 10000

compound: Cc1cc(C)[n+](CC(=O)Nc2ccc(S(N)(=O)=O)cc2Br)c(C)c1
bound-operator: =
Ki (nM): 800

compound: CC(C)c1cc(-c2cc(C(C)C)c(O)c(C(C)C)c2)cc(C(C)C)c1O
bound-operator: =
Ki (nM): 37900

compound: NCC(=O)Nc1ccc(S(=O)(=O)Nc2ccc(S(N)(=O)=O)cc2)cc1
bound-operator: =
Ki (nM): 62

compound: NS(=O)(=O)c1cc(C(=O)N[C@@H](Cc2c[nH]cn2)C(=O)NCC(=O)O)ccc1Cl
bound-operator: =
Ki (nM): 41

compound: NS(=O)(=O)Nc1ccc([N+](=O)[O-])cc1
bound-operator: =
Ki (nM): 18

compound: O=S1(=O)CC(O)c2ccc(O)cc2O1 (stereo not given)
bound-operator: >
Ki (nM): 10000

compound: COC(=O)c1ccc(NCc2ccc(C(C)(C)C)cc2)cc1
bound-operator: =
Ki (nM): 251

compound: Cc1cc(C)[n+](Cc2ccc(S(N)(=O)=O)cc2)c(C(C)C)c1
bound-operator: =
Ki (nM): 6000

compound: CC(C)C(NS(=O)(=O)C(F)(F)C(F)(F)C(F)(F)C(F)(F)F)C(=O)NO (stereo not given)
bound-operator: =
Ki (nM): 29

compound: CCOS(N)(=O)=O
bound-operator: =
Ki (nM): 38000

compound: CC(=O)N1N=C(c2ccc(Cl)cc2)CC1c1cccc(OS(N)(=O)=O)c1 (stereo not given)
bound-operator: =
Ki (nM): 2140

compound: CC(C)c1cc(-c2ccccc2)cc(C(C)C)[n+]1CC(=O)NCCc1ccc(S(N)(=O)=O)cc1
bound-operator: =
Ki (nM): 775

compound: C#CCOc1c(/C=N/Cc2ccc(S(N)(=O)=O)cc2)cccc1OC
bound-operator: >
Ki (nM): 10000

compound: Cc1nn(-c2ccccc2C(=O)O)c2c1c(=O)oc1ccccc12
bound-operator: >
Ki (nM): 10000

compound: CC(=O)c1ccc(NC(=O)N/C=C/C=C/c2ccc3c(c2)OCO3)cc1
bound-operator: >
Ki (nM): 100000

compound: Nc1c(Br)cc(S(=O)(=O)Nc2nnc(S(N)(=O)=O)s2)cc1I
bound-operator: =
Ki (nM): 1.9

compound: CC1=NN(c2ccccc2)C(=O)/C1=N/Nc1cccc(S(N)(=O)=O)c1
bound-operator: =
Ki (nM): 8310

compound: O=C(NO)[C@H]1CCCN1S(=O)(=O)c1ccc(C#Cc2ccccc2)cc1
bound-operator: >
Ki (nM): 100000

compound: CNCC(=O)Nc1ccc(S(N)(=O)=O)cc1F
bound-operator: =
Ki (nM): 500

compound: NS(=O)(=O)c1ccc(CNC(=O)c2ccc(S(N)(=O)=O)cc2)cc1
bound-operator: =
Ki (nM): 40

compound: C[C@H](CCC(=O)OCc1ccc(S(N)(=O)=O)cc1)[C@H]1CC[C@H]2[C@@H]3CC[C@@H]4C[C@H](O)CC[C@]4(C)[C@H]3C[C@H](O)[C@]12C
bound-operator: =
Ki (nM): 1000

compound: NC(=O)CC(/N=C(\S)Nc1ccc(S(N)(=O)=O)cc1)C(=O)O (stereo not given)
bound-operator: =
Ki (nM): 27

compound: Cc1ncc([N+](=O)[O-])n1CCNS(C)(=O)=O
bound-operator: >
Ki (nM): 20000

compound: NS(=O)(=O)c1ccc(NNC(=O)CNCC(=O)O)cc1
bound-operator: =
Ki (nM): 32700

compound: NS(=O)(=O)c1ccc(-c2ccc3[nH]ccc3c2)cc1
bound-operator: =
Ki (nM): 24.5

compound: Nc1ncnc2c1ncn2CC(=O)Nc1cccc(S(N)(=O)=O)c1
bound-operator: >
Ki (nM): 10000

compound: CC(=O)OC[C@H]1O[C@@H](SNCc2ccc(S(N)(=O)=O)cc2)[C@H](OC(C)=O)[C@@H](OC(C)=O)[C@H]1OC(C)=O
bound-operator: =
Ki (nM): 120

compound: NS(=O)(=O)c1ccc(NSC(=S)N2CCOCC2)c(Cl)c1
bound-operator: =
Ki (nM): 800

compound: CC(=O)O[C@H]1[C@@H](OC(C)=O)[C@@H](CO)O[C@@H]([Se]c2ccc(S(N)(=O)=O)cc2)[C@@H]1OC(C)=O
bound-operator: =
Ki (nM): 86.2

compound: O=C1C=CC[C@H](C[C@@H](O)CCc2ccc(O)cc2)O1
bound-operator: =
Ki (nM): 5480

compound: C[C@H](CCC(=O)NCCC(=O)Nc1nnc(S(N)(=O)=O)s1)[C@H]1CC[C@H]2[C@@H]3[C@H](O)C[C@@H]4C[C@H](O)CC[C@]4(C)[C@H]3C[C@H](O)[C@]12C
bound-operator: =
Ki (nM): 250

compound: NS(=O)(=O)c1ccc2c(c1)S(=O)(=O)C=C2
bound-operator: =
Ki (nM): 63
